- System: SiHa cells
- Test description: MTT antiproliferative assay on SiHa
- Type: cell-based, human
- Cond: MTT, 0.1–30 μM, 72 h, mean ± SEM; read-out: calculated IC50 values, SiHa
Assay metric: IC50

1) N.N.[Cl][Pt][Cl] [cisplatin, reference compound] = 7.8 µM

* * *

- Tested on: NIH/3T3 mouse embryonic fibroblast cells
- Test description: MTT assay for tumor selectivity on NIH/3T3
- Assay type: cell-based
- Cond: Mus musculus, NIH3T3; MTT, 0.1–30 μM, 72 h, mean ± SEM; read-out: calculated IC50 values, NIH/3T3
pIC50: −log10 of the molar value.
// values below are reported pIC50
Assay metric: pIC50

1. C=CC1=C(C)C(=O)C=C2C3=C(CCC21OC)C(C)(OC)C(=O)C=C3 (stereo not shown) = 4.75
2. C=CC1=C(C)C(=O)C=C2c3ccc(O)c(C)c3CC[C@]21OC = < 4.52
3. C=CC1=C(C)C(=O)C=C2c3ccc(O)c(C)c3CC[C@]21OCC = < 4.52
4. C=CC1=C(C)C(=O)C=C2c3ccc(O)c(C)c3CCC21OCCCC (stereo not shown) = < 4.52
5. C=CC1=C(C)C(=O)C=C2C3=C(CC[C@]21OC)[C@](C)(OC)C(=O)C=C3 = < 4.52
6. C=CC1=C(C)C(=O)C=C2C3=C(CCC21OCC)C(C)(OCC)C(=O)C=C3 (single isomer, unassigned) = 4.61
7. C=CC1=C(C)C(=O)C=C2C3=C(CC[C@@]21OC)[C@@](C)(OC)C(=O)C=C3 = < 4.52

* * *

- Test system: C33A cells
- Test description: MTT antiproliferative assay on C33A
- Assay type: cell-based, human
- Cond: MTT, 0.1–30 μM, 72 h, mean ± SEM; read-out: calculated IC50 values, C33A
Assay metric: IC50

1. N.N.[Cl][Pt][Cl] [cisplatin, reference compound] = 1800 nM

* * *

- Test system: NIH/3T3 mouse embryonic fibroblast cells
- Test description: MTT assay for tumor selectivity on NIH/3T3
- Assay type: cell-based
- Cond: MTT, 0.1–30 μM, 72 h, mean ± SEM; read-out: calculated IC50 values, NIH/3T3
Assay metric: IC50 (µM)

1) N.N.[Cl][Pt][Cl] [cisplatin, reference compound] = 2.7

* * *

- System: T47D cells
- Test description: MTT antiproliferative assay on T47D
- Type: cell-based, human
- Cond: Homo sapiens, T47D; MTT, 0.1–30 μM, 72 h, mean ± SEM; read-out: calculated IC50 values, T47D
Assay metric: IC50

1) C=CC1=C(C)C(=O)C=C2c3ccc(O)c(C)c3CC[C@]21OCC = > 30 µM
2) C=CC1=C(C)C(=O)C=C2c3ccc(O)c(C)c3CCC21OCCCC (stereo not drawn) = 30 µM
3) C=CC1=C(C)C(=O)C=C2C3=C(CC[C@]21OC)[C@](C)(OC)C(=O)C=C3 = > 30 µM
4) C=CC1=C(C)C(=O)C=C2c3ccc(O)c(C)c3CC[C@@]21OC = > 30 µM
5) C=CC1=C(C)C(=O)C=C2C3=C(CC[C@@]21OC)[C@@](C)(OC)C(=O)C=C3 = > 30 µM
6) C=CC1=C(C)C(=O)C=C2C3=C(CC[C@@]21OC)[C@](C)(OC)C(=O)C=C3 = 12.5 µM
7) C=CC1=C(C)C(=O)C=C2C3=C(CC[C@]21OC)[C@@](C)(OC)C(=O)C=C3 = > 30 µM
8) C=CC1=C(C)C(=O)C=C2c3ccc(O)c(C)c3CC[C@]21OC = > 30 µM
9) C=CC1=C(C)C(=O)C=C2C3=C(CCC21OCC)C(C)(OCC)C(=O)C=C3 (single isomer, unassigned) = 22.9 µM
